System: 186277-243-T-J2-PDC complex spheroids, viability
ASSAY NOTES: Anticancer human tumor 186277-243-T-J2-PDC patient-derived colon adenocarcinoma cell line growth inhibition [RAS]; active means viability on the fitted dose curve at most 10% of control; inactive means the rest
TEST CONDITIONS: second compound 1 µM; first compound 0.1 µM
Your response should consist of one outcome taken from active, inactive

{"COMPOUND": "CC1(O)CCCC1n1c(=O)c(C(F)F)cc2cnc(NC3CCN(S(C)(=O)=O)CC3)nc21 (stereo not given) + C#Cc1c(F)ccc2cc(O)cc(-c3ncc4c(N5CC6CCC(C5)N6)nc(OCC56CCCN5CC(F)C6)nc4c3F)c12", "STUDY TARGET": "186277-243-T-J2-PDC complex spheroids, viability", "GROUP": "inactive"}
{"COMPOUND": "C[C@@H](NC(=O)c1ncnc(N)c1Cl)c1ncc(C(=O)Nc2cc(C(F)(F)F)c(Cl)cn2)s1 + C=CC(=O)N1CCN(c2nc(OCC3CCCN3C)nc3c(F)c(-c4nc(N)cc(C)c4C(F)(F)F)c(Cl)cc23)C(C)C1", "STUDY TARGET": "186277-243-T-J2-PDC complex spheroids, viability", "GROUP": "inactive"}
{"COMPOUND": "CC(=O)OC12COC1CC(O)C1(C)C(=O)C(O)C3=C(C)C(OC(=O)C(O)C(NC(=O)OC(C)(C)C)c4ccccc4)CC(O)(C(OC(=O)c4ccccc4)C21)C3(C)C (stereo not given) + C#Cc1c(F)ccc2cc(O)cc(-c3ncc4c(N5CC6CCC(C5)N6)nc(OCC56CCCN5CC(F)C6)nc4c3F)c12", "STUDY TARGET": "186277-243-T-J2-PDC complex spheroids, viability", "GROUP": "active"}
{"COMPOUND": "Nc1ccn(C2OC(CO)C(O)C2(F)F)c(=O)n1 (stereo not given) + C=CC(=O)N1CCN(c2nc(OCC3CCCN3C)nc3c(F)c(-c4nc(N)cc(C)c4C(F)(F)F)c(Cl)cc23)C(C)C1", "STUDY TARGET": "186277-243-T-J2-PDC complex spheroids, viability", "GROUP": "inactive"}

Hi, sorry to bother you, what did the test record for Nc1ccn(C2OC(CO)C(O)C2(F)F)c(=O)n1 (stereo not given) + C#Cc1c(F)ccc2cc(O)cc(-c3ncc4c(N5CC6CCC(C5)N6)nc(OCC56CCCN5CC(F)C6)nc4c3F)c12 ?
active

* * *

Listing: viability, T/C of selected compounds
System: 186277-243-T-J2-PDC complex spheroids, viability
ASSAY NOTES: Anticancer human tumor 186277-243-T-J2-PDC cell line growth inhibition [RAS];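 further: spheroids exposed to compounds for 7 days before viability read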
TEST CONDITIONS: second compound 0.000949 µM; first compound 0.1 µM; hits give low values
Answer with a number only, understood to be in %.

{"COMPOUND": "NC1c2ccccc2OC12CCN(c1cnc3c(N4CCCc5ncccc54)n[nH]c3n1)CC2 (stereo not drawn) + CCn1c(-c2cccnc2C(C)OC)c2c3cc(ccc31)N1CCOC(CC(NC(=O)C(C(C)C)N(C)C(=O)C3(F)CCN(C(=O)C#CC(C)(C)N(C)C)CC3)C(=O)N3CCCC(N3)C(=O)OCC(C)(C)C2)C1", "RESULT UNITS": "%", "viability, T/C": 102}

Recorded result, O=C(c1ccc(F)c(F)c1Nc1ccc(I)cc1F)N1CC(O)([C@@H]2CCCCN2)C1 + CCn1c(-c2cccnc2C(C)OC)c2c3cc(ccc31)N1CCOC(CC(NC(=O)C(C(C)C)N(C)C(=O)C3(F)CCN(C(=O)C#CC(C)(C)N(C)C)CC3)C(=O)N3CCCC(N3)C(=O)OCC(C)(C)C2)C1 , viability, T/C: 48.2

Recorded result, Cc1nc(N2CCC3(CC2)COC(C)C3N)c(CO)nc1Sc1ccnc(N)c1Cl (stereo not drawn) + CCn1c(-c2cc(N3CCN(C)CC3)cnc2C(C)OC)c2c3cc(ccc31)-c1csc(n1)CC(NC(=O)C1CC1C)C(=O)N1CCCC(N1)C(=O)OCC(C)(C)C2 , viability, T/C: 110

* * *

Tested on: 186277-243-T-J2-PDC complex spheroids, viability
ASSAY NOTES: Anticancer human tumor 186277-243-T-J2-PDC cell line growth inhibition [RAS];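 further: spheroids exposed to compounds for 7 days before viability read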
TEST CONDITIONS: second compound 0.316 µM; first compound 1 µM; hits give low values
ASSAY METRIC: viability, T/C (%)
Answer with a number only, understood to be in %.

Recorded result, CC(C)NCC(C(=O)N1CCN(c2ncnc3c2C(C)CC3O)CC1)c1ccc(Cl)cc1 (stereo not drawn) + C=CC(=O)N1CCN(c2nc(OCC3CCCN3C)nc3c(F)c(-c4nc(N)cc(C)c4C(F)(F)F)c(Cl)cc23)C(C)C1 , viability, T/C: 62.8

Recorded result, CCC(CC)c1cc(NC2CCC(N)C2)n2nccc2n1 (stereo not drawn) + C#Cc1c(F)ccc2cc(O)cc(-c3ncc4c(N5CC6CCC(C5)N6)nc(OCC56CCCN5CC(F)C6)nc4c3F)c12 , viability, T/C: 17.3

Recorded result, Nc1ccn(C2OC(CO)C(O)C2(F)F)c(=O)n1 (stereo not drawn) + C#Cc1c(F)ccc2cc(O)cc(-c3ncc4c(N5CC6CCC(C5)N6)nc(OCC56CCCN5CC(F)C6)nc4c3F)c12 , viability, T/C: 7.34

* * *

Test system: 186277-243-T-J2-PDC complex spheroids, viability
ASSAY NOTES: Anticancer human tumor 186277-243-T-J2-PDC cell line growth inhibition [RAS];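 further: spheroids exposed to compounds for 7 days before viability read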
TEST CONDITIONS: second compound 0.003 µM; first compound 1 µM; hits give low values
Field 'label' (enum: 1.0 / 0.0). Set to 1.0 when viability, T/C is strictly under 80%; else 0.0.

Solved cases below.
{"COMPOUND": "CCC(CC)c1cc(NC2CCC(N)C2)n2nccc2n1 (stereo not drawn) + CCn1c(-c2cc(N3CCN(C)CC3)cnc2C(C)OC)c2c3cc(ccc31)-c1csc(n1)CC(NC(=O)C1CC1C)C(=O)N1CCCC(N1)C(=O)OCC(C)(C)C2", "GROUP": 0.0}
{"COMPOUND": "CC(Nc1ccc2c(c1)OCCn1cc(N3C(=O)OCC3C(F)F)nc1-2)C(N)=O (stereo not drawn) + CCn1c(-c2cccnc2C(C)OC)c2c3cc(ccc31)N1CCOC(CC(NC(=O)C(C(C)C)N(C)C(=O)C3(F)CCN(C(=O)C#CC(C)(C)N(C)C)CC3)C(=O)N3CCCC(N3)C(=O)OCC(C)(C)C2)C1", "GROUP": 1.0}
{"COMPOUND": "O=C(c1ccc(F)c(F)c1Nc1ccc(I)cc1F)N1CC(O)([C@@H]2CCCCN2)C1 + CCn1c(-c2cc(N3CCN(C)CC3)cnc2C(C)OC)c2c3cc(ccc31)-c1csc(n1)CC(NC(=O)C1CC1C)C(=O)N1CCCC(N1)C(=O)OCC(C)(C)C2", "GROUP": 1.0}
{"COMPOUND": "CC(C)NCC(C(=O)N1CCN(c2ncnc3c2C(C)CC3O)CC1)c1ccc(Cl)cc1 (stereo not drawn) + CCn1c(-c2cc(N3CCN(C)CC3)cnc2C(C)OC)c2c3cc(ccc31)-c1csc(n1)CC(NC(=O)C1CC1C)C(=O)N1CCCC(N1)C(=O)OCC(C)(C)C2", "GROUP": 1.0}
{"COMPOUND": "CCN1CCN(Cc2ccc(Nc3ncc(F)c(-c4cc(F)c5nc(C)n(C(C)C)c5c4)n3)nc2)CC1 + CCn1c(-c2cccnc2C(C)OC)c2c3cc(ccc31)N1CCOC(CC(NC(=O)C(C(C)C)N(C)C(=O)C3(F)CCN(C(=O)C#CC(C)(C)N(C)C)CC3)C(=O)N3CCCC(N3)C(=O)OCC(C)(C)C2)C1", "GROUP": 0.0}

hey, is viability, T/C for CCC(CC)c1cc(NC2CCC(N)C2)n2nccc2n1 (stereo not drawn) + CCn1c(-c2cccnc2C(C)OC)c2c3cc(ccc31)N1CCOC(CC(NC(=O)C(C(C)C)N(C)C(=O)C3(F)CCN(C(=O)C#CC(C)(C)N(C)C)CC3)C(=O)N3CCCC(N3)C(=O)OCC(C)(C)C2)C1 lower than 80% or not?
0.0

hey, is viability, T/C for CCN1CCN(Cc2ccc(Nc3ncc(F)c(-c4cc(F)c5nc(C)n(C(C)C)c5c4)n3)nc2)CC1 + CCn1c(-c2cc(N3CCN(C)CC3)cnc2C(C)OC)c2c3cc(ccc31)-c1csc(n1)CC(NC(=O)C1CC1C)C(=O)N1CCCC(N1)C(=O)OCC(C)(C)C2 lower than 80% or not?
1.0

hey, is viability, T/C for C[C@@H](NC(=O)c1ncnc(N)c1Cl)c1ncc(C(=O)Nc2cc(C(F)(F)F)c(Cl)cn2)s1 + CCn1c(-c2cc(N3CCN(C)CC3)cnc2C(C)OC)c2c3cc(ccc31)-c1csc(n1)CC(NC(=O)C1CC1C)C(=O)N1CCCC(N1)C(=O)OCC(C)(C)C2 lower than 80% or not?
0.0
